# Tested system: purified MmpL3tb protein (Mycobacterium tuberculosis, UniProt P9WJV5)
# Experiment: Surface Plasmon Resonance binding to immobilized MmpL3tb
# Condition parameters: SPR global fit
Quantity name: kd1 (s⁻¹)
One number for each entry, in s⁻¹.

Worked cases, kd1 given:
C[C@@H]1C(NC(=O)c2cc3cc(OCc4cn(CCCCCCNC(=O)c5ccc(-c6c7ccc(=[N+](C)C)cc-7oc7cc(N(C)C)ccc67)c(C(=O)O)c5)nn4)ccc3[nH]2)C[C@H]2C[C@@H]1C2(C)C (stereo partly shown) :: 0.02
CC(C)=CCC/C(C)=C/CNCCNC1C2CC3CC(C2)CC1C3 (stereo not shown) :: 2.32
Cc1c(CN2CCN(C)CC2)cc(-c2ccc(Cl)cc2)n1-c1ccc(Cl)cc1 :: 1.67

Now for the compound whose kd1 we want.
Look at this compound and give its reported kd1. CN(C)c1ccc2c(-c3ccc(C(=O)NCCCCCCn4cc(COc5ccc6[nH]c(C(=O)NC7CCCCCCC7)cc6c5)nn4)cc3C(=O)O)c3ccc(=[N+](C)C)cc-3oc2c1 0.19

###

Kindly state ka1 for each of the entries shown.
# Tested system: purified MmpL3tb protein (Mycobacterium tuberculosis)
# Experiment: Surface Plasmon Resonance binding to immobilized MmpL3tb
# Condition parameters: SPR global fit; HEPES-TX buffer with 5% DMSO
One number for each entry, in M⁻¹ s⁻¹.

C[C@@H]1C(NC(=O)c2cc3cc(OCc4cn(CCCCCCNC(=O)c5ccc(-c6c7ccc(=[N+](C)C)cc-7oc7cc(N(C)C)ccc67)c(C(=O)O)c5)nn4)ccc3[nH]2)C[C@H]2C[C@@H]1C2(C)C (stereo partly shown) :: 36380.1
CC(C)=CCC/C(C)=C/CNCCNC1C2CC3CC(C2)CC1C3 (stereo not shown) :: 1208.2
Cc1c(CN2CCN(C)CC2)cc(-c2ccc(Cl)cc2)n1-c1ccc(Cl)cc1 :: 1054.8

Now for the compound whose ka1 we want.
Look at this compound and give its reported ka1. CN(C)c1ccc2c(-c3ccc(C(=O)NCCCCCCn4cc(COc5ccc6[nH]c(C(=O)NC7CCCCCCC7)cc6c5)nn4)cc3C(=O)O)c3ccc(=[N+](C)C)cc-3oc2c1 2138.3

###

# Tested on: MsmgΔmmpL3 expressing mmpL3tb L189R
# Format: cell-based, Mycobacterium smegmatis
Marks after values point to notes of the source that are not given here.
Quantity name: MIC

Worked cases, MIC given:
O=C(O)c1cn(C2CC2)c2cc(N3CCNCC3)c(F)cc2c1=O :: 0.31 µg/mL
C[C@@H]1C(NC(=O)c2cc3cc(OCc4cn(CCCCCCNC(=O)c5ccc(-c6c7ccc(=[N+](C)C)cc-7oc7cc(N(C)C)ccc67)c(C(=O)O)c5)nn4)ccc3[nH]2)C[C@H]2C[C@@H]1C2(C)C (some centres unmarked) :: 8 µg/mL
C[C@@H]1[C@H]2C[C@@H](C[C@H]1NC(=O)c1cc3ccccc3[nH]1)C2(C)C :: 1.28^a μg/mL
CN(C)c1ccc2c(-c3ccc(C(=O)NCCCCCCn4cc(COc5ccc6[nH]c(C(=O)NC7CCCCCCC7)cc6c5)nn4)cc3C(=O)O)c3ccc(=[N+](C)C)cc-3oc2c1 :: >32^b μg/mL

Look at this molecule and give its reported MIC. Cc1cc(C)c2cc(C(=O)NC3CCCCCCC3)[nH]c2c1 0.2^b μg/mL
